# Test system: HL-60 cells
# procedure.summary: Cell viability resazurin assay, HL-60 cells
# Format: cell-based, human
# condition.parameters: 2 h incubation, 250 µM, ± SD
# Protocol: The A549 (human non-small cell lung cancer) cell line was obtained from the American Type Culture Collection (ATCC) and cultured in Dulbecco's Modified Eagle Medium (DMEM) with 10% fetal bovine serum (FBS), 2 mM L-Glutamine, 25 mM HEPES and penicillin/streptomycin solution (100 U/ml and 100 µg/ml, respectively). […] Firstly, resazurin salt powder was dissolved in sterile 1 × PBS. […] The effects of iron(II) complexes were calculated as the percentage of control fluorescence. […]
# Lookup of reported viability of HL-60 cells relative to control keyed by entry
Express the result in % but write the number alone.

Some entries whose results are on file:
O=C1C=CC(=O)[N-]1.[C-]#[O+].[C-]#[O+].[Fe+2].c1cc[cH-]c1 [compound 1, CpFe(CO)2(η^1-N-maleimidato)]
15.71
O=C1C=CC(=O)[N-]1.[C-]#[O+].[Fe+2].c1cc[cH-]c1.c1ccc(OP(Oc2ccccc2)Oc2ccccc2)cc1 [3b, CpFe(CO)(P(OPh)3)(η^1-N-maleimidato)]
23.24

Field request: viability of HL-60 cells relative to control | item: O=C1C=CC(=O)[N-]1.[C-]#[O+].[Fe+2].c1cc[cH-]c1.c1ccc(P(c2ccccc2)c2ccccc2)cc1 [2a, CpFe(CO)(PPh3)(η^1-N-maleimidato)]
113.31

I have this molecule here, O=C1C=CC(=O)[N-]1.[C-]#[O+].[Fe+2].c1cc[cH-]c1.c1coc(P(c2ccco2)c2ccco2)c1 [2b, CpFe(CO)(P(Fu)3)(η^1-N-maleimidato)] , and I need its recorded viability of HL-60 cells relative to control.
21.23

What does the record list as viability of HL-60 cells relative to control for CCOP(OCC)OCC.O=C1C=CC(=O)[N-]1.[C-]#[O+].[Fe+2].c1cc[cH-]c1 [3a] ?
30.8

* * *

# System: HL-60 cells
# procedure.summary: Cell viability resazurin assay, HL-60 cells
# Format: cell-based, human
# condition.parameters: 24 h incubation, 5 µM, ± SD
Simple rule here: viability of HL-60 cells relative to control less than 90% is y, otherwise n.

CCOP(OCC)OCC.O=C1C=CC(=O)[N-]1.[C-]#[O+].[Fe+2].c1cc[cH-]c1
n

Given `O=C1C=CC(=O)[N-]1.[C-]#[O+].[Fe+2].c1cc[cH-]c1.c1ccc(P(c2ccccc2)c2ccccc2)cc1` , is recorded viability of HL-60 cells relative to control strictly lower than 90%?
y

Given the entry `O=C1C=CC(=O)[N-]1.[C-]#[O+].[Fe+2].c1cc[cH-]c1.c1coc(P(c2ccco2)c2ccco2)c1` , would its reported viability of HL-60 cells relative to control be below 90%?
y

Take the compound `O=C1C=CC(=O)[N-]1.[C-]#[O+].[Fe+2].c1cc[cH-]c1.c1ccc(OP(Oc2ccccc2)Oc2ccccc2)cc1` and say whether its viability of HL-60 cells relative to control is less than 90%.
y

* * *

Here, each record is paired with measured viability of PBM cells relative to control data.
# System: PBM cells
# procedure.summary: Cell viability resazurin assay, PBM cells
# Assay type: cell-based, human
# condition.parameters: 24 h incubation, 25 µM, ± SD
Write it as a number; the unit % goes unstated.

Some solved entries appear below for comparison.
O=C1C=CC(=O)[N-]1.[C-]#[O+].[C-]#[O+].[Fe+2].c1cc[cH-]c1
89.23
O=C1C=CC(=O)[N-]1.[C-]#[O+].[Fe+2].c1cc[cH-]c1.c1coc(P(c2ccco2)c2ccco2)c1
88.93
O=C1C=CC(=O)[N-]1.[C-]#[O+].[Fe+2].c1cc[cH-]c1.c1ccc(P(c2ccccc2)c2ccccc2)cc1
64.32

What value of viability of PBM cells relative to control has been recorded for this entry: `CCOP(OCC)OCC.O=C1C=CC(=O)[N-]1.[C-]#[O+].[Fe+2].c1cc[cH-]c1`
98.34

// viability of PBM cells relative to control lookup, key: `O=C1C=CC(=O)[N-]1.[C-]#[O+].[Fe+2].c1cc[cH-]c1.c1ccc(OP(Oc2ccccc2)Oc2ccccc2)cc1`
31
